Source of measurements: patent US11773062B2

# Test system: human (mixed gender) hepatocytes
# ASSAY NAME: In vitro intrinsic clearance in human hepatocytes with and without MAO-A/B inhibitor combination (first experiment)
# MEASUREMENT PARAMETERS: human hepatocytes (Table 5)
Decide using % change in half-life, MAO inhibitors vs no inhibitors: a value greater than or equal to 20% is Condition met, a smaller one is Condition not met.

>  <COMPOUND>
[2H]C([2H])(Cc1c[nH]c2ccccc12)N(C)C [SPL028iii]

>  <ANSWER LABEL>
Condition met

$$$$

Now look at this entry.
Task item: Determine whether measured % change in half-life, MAO inhibitors vs no inhibitors meets or exceeds 20% for NCc1ccccc1 [Benzylamine, reference compound]
Reply: Condition met

====

# System: human (mixed gender) hepatocytes
# ASSAY NAME: In vitro intrinsic clearance in human hepatocytes with and without MAO-A/B inhibitor combination (first experiment)
# MEASUREMENT PARAMETERS: human hepatocytes, without MAO inhibitors (Table 4; unit given only in Table 5)
Readings of Half-life, without inhibitors for the listed compounds
Record the value in h, omitting the unit from your answer.

Worked examples follow.
>  <COMPOUND>
NCc1ccccc1 [Benzylamine, reference compound]

>  <ASSAY ENDPOINT>
Half-life, without inhibitors

>  <UOM>
h

>  <ENDPOINT VALUE>
1.272

$$$$
>  <COMPOUND>
NCCc1c[nH]c2ccc(O)cc12 [Serotonin, reference compound]

>  <ASSAY ENDPOINT>
Half-life, without inhibitors

>  <UOM>
h

>  <ENDPOINT VALUE>
0.55

$$$$
>  <COMPOUND>
CN(C)CCc1c[nH]c2ccccc12 [SPL026, N,N-dimethyltryptamine, reference compound]

>  <ASSAY ENDPOINT>
Half-life, without inhibitors

>  <UOM>
h

>  <ENDPOINT VALUE>
1.54

$$$$

Now examine the next entry.
Task item: Any idea what Half-life, without inhibitors came out for [2H]C([2H])(Cc1c[nH]c2ccccc12)N(C)C [SPL028vi] on human (mixed gender) hepatocytes?
Reply: 1.584

====

# ASSAY NAME: Human liver mitochondrial fraction intrinsic clearance of SPL026, SPL028i, SPL028iii, SPL028viii
# Assay type: in vitro ADME
# MEASUREMENT PARAMETERS: 0.5 mg/mL human liver mitochondrial fraction (Table 10)
# Excerpt: Human Liver Mitochondrial (HLMt) fractions contain high quantities of MAO enzymes and therefore, provide a useful tool to measure the clearance of MAO substrates.
Field 'label' (enum: Criterion met / Criterion not met). Set to Criterion met when Intrinsic Clearance is strictly under 40 μL/min/mg protein; else Criterion not met.

Past entries and their recorded results:
>  <COMPOUND>
NCc1ccccc1 [Benzylamine, reference compound]

>  <ANSWER LABEL>
Criterion not met

$$$$
>  <COMPOUND>
[2H]C([2H])([2H])N(C([2H])([2H])[2H])C([2H])([2H])Cc1c[nH]c2ccccc12 [SPL028viii]

>  <ANSWER LABEL>
Criterion met

$$$$
>  <COMPOUND>
[2H]C([2H])(Cc1c[nH]c2ccccc12)N(C)C [SPL028iii]

>  <ANSWER LABEL>
Criterion met

$$$$
>  <COMPOUND>
NCCc1c[nH]c2ccc(O)cc12 [Serotonin, reference compound]

>  <ANSWER LABEL>
Criterion not met

$$$$

Task item: Strictly below 40 μL/min/mg protein in Intrinsic Clearance? [2H]C([2H])(Cc1c[nH]c2ccccc12)N(C)C [SPL028i]
Reply: Criterion not met

====

# ASSAY NAME: In vitro mouse hepatocytic intrinsic clearance
# MEASUREMENT PARAMETERS: male, CD-1, mouse, hepatocytes
ASSAY ENDPOINT: hepatocyte CLint at 5 μM (µL/min/1e6 cells)
# value in µL/min/1e6 cells; strip the unit string

See these solved cases before continuing.
>  <COMPOUND>
NCCc1c[nH]c2ccc(O)cc12 [Serotonin, reference compound]

>  <UOM>
µL/min/1e6 cells

>  <hepatocyte CLint at 5 μM>
83

$$$$
>  <COMPOUND>
O=C(O)Cc1ccccc1Nc1c(Cl)cccc1Cl [Diclofenac, reference compound]

>  <UOM>
µL/min/1e6 cells

>  <hepatocyte CLint at 5 μM>
57.7

$$$$
>  <COMPOUND>
NCc1ccccc1 [Benzylamine, reference compound]

>  <UOM>
µL/min/1e6 cells

>  <hepatocyte CLint at 5 μM>
134

$$$$

Field: next compound
Task item: Field request: hepatocyte CLint at 5 μM | item: CN(C)CCc1c[nH]c2ccccc12 [SPL026, N,N-dimethyltryptamine, reference compound]
Reply: 124

====

# maps each entry to its % change in intrinsic clearance, MAO inhibitors vs no inhibitors
# Tested on: human (mixed gender) hepatocytes
# ASSAY NAME: In vitro intrinsic clearance in human hepatocytes with and without MAO-A/B inhibitor combination (first experiment)
# MEASUREMENT PARAMETERS: human hepatocytes (Table 5)
Kindly provide the numeric value in % only, without the unit symbol.

Some solved cases for reference:
>  <COMPOUND>
[2H]C([2H])(Cc1c[nH]c2ccccc12)N(C)C [SPL028iv]

>  <UOM>
%

>  <ENDPOINT VALUE>
−49.33

$$$$
>  <COMPOUND>
CN(C)CCc1c[nH]c2ccccc12 [SPL026, N,N-dimethyltryptamine, reference compound]

>  <UOM>
%

>  <ENDPOINT VALUE>
−4.00

$$$$
>  <COMPOUND>
[2H]C([2H])(Cc1c[nH]c2ccccc12)N(C)C [SPL028iii]

>  <UOM>
%

>  <ENDPOINT VALUE>
−35.65

$$$$
>  <COMPOUND>
[2H]C([2H])(Cc1c[nH]c2ccccc12)N(C)C [SPL028i]

>  <UOM>
%

>  <ENDPOINT VALUE>
4.67

$$$$
>  <COMPOUND>
[2H]C([2H])(Cc1c[nH]c2ccccc12)N(C)C [SPL028ii]

>  <UOM>
%

>  <ENDPOINT VALUE>
−19.13

$$$$
>  <COMPOUND>
[2H]C([2H])(Cc1c[nH]c2ccccc12)N(C)C [SPL028vi]

>  <UOM>
%

>  <ENDPOINT VALUE>
−26.41

$$$$
>  <COMPOUND>
[2H]C([2H])(Cc1c[nH]c2ccccc12)N(C)C [SPL028v]

>  <UOM>
%

>  <ENDPOINT VALUE>
−15.56

$$$$

# input for lookup
Task item: I am curious: what % change in intrinsic clearance, MAO inhibitors vs no inhibitors value has been reported for NCCc1c[nH]c2ccc(O)cc12 [Serotonin, reference compound] ?
Reply: −282.18

====

# Tested on: human (mixed gender) hepatocytes
# ASSAY NAME: In vitro intrinsic clearance in human hepatocytes with and without MAO-A/B inhibitor combination (first experiment)
# MEASUREMENT PARAMETERS: human hepatocytes, with MAO-A/B inhibitor combination (Table 5)
ASSAY ENDPOINT: Half-life, with inhibitors (min)
A number alone suffices; assume min.

>  <COMPOUND>
[2H]C([2H])(Cc1c[nH]c2ccccc12)N(C)C [SPL028iii]

>  <UOM>
min

>  <Half-life, with inhibitors>
189.6

$$$$
>  <COMPOUND>
CN(C)CCc1c[nH]c2ccccc12 [SPL026, N,N-dimethyltryptamine, reference compound]

>  <UOM>
min

>  <Half-life, with inhibitors>
96.06

$$$$

Task item: Which Half-life, with inhibitors is listed for [2H]C([2H])(Cc1c[nH]c2ccccc12)N(C)C [SPL028iv] ?
Reply: 171.17

Task item: # Half-life, with inhibitors lookup, item NCc1ccccc1 [Benzylamine, reference compound]
Reply: 460

Task item: Requested field: Half-life, with inhibitors. Item: [2H]C([2H])(Cc1c[nH]c2ccccc12)N(C)C [SPL028i]
Reply: 169.75

====

Recorded intrinsic clearance, CYP isoform 2C19 by entry
# MEASURED ON: CYP2C19 (Homo sapiens, UniProt P33261)
# Sequence (P33261 whole entry): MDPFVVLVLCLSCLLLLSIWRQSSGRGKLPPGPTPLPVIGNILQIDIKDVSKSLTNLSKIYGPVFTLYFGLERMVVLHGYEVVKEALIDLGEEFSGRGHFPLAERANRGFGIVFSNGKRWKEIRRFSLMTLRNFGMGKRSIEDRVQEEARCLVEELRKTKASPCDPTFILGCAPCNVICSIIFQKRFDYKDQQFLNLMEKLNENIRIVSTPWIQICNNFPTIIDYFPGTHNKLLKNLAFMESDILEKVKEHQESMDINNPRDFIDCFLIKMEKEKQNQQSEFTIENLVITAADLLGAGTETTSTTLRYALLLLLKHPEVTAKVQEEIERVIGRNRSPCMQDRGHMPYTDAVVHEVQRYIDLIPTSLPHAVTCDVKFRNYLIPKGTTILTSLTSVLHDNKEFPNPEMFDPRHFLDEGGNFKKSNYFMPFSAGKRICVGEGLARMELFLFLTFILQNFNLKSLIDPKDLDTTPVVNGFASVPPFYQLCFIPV
# ASSAY NAME: CYP phenotyping, CYP bactosomes
# MEASUREMENT PARAMETERS: E. coli CYPEX membranes, 100 pmol/mL CYP
Give just the numeric value; μL/min/nmol CYP need not be written.

See these solved cases before continuing.
>  <MOLECULE>
[2H]C([2H])(Cc1c[nH]c2ccccc12)N(C)C [SPL028i]

>  <ASSAY ENDPOINT>
intrinsic clearance, CYP isoform 2C19

>  <ENDPOINT VALUE>
39

$$$$
>  <MOLECULE>
CN(C)CCc1c[nH]c2ccccc12 [SPL026, N,N-dimethyltryptamine, reference compound]

>  <ASSAY ENDPOINT>
intrinsic clearance, CYP isoform 2C19

>  <ENDPOINT VALUE>
37

$$$$
>  <MOLECULE>
[2H]C([2H])(Cc1c[nH]c2ccccc12)N(C)C [SPL028ii]

>  <ASSAY ENDPOINT>
intrinsic clearance, CYP isoform 2C19

>  <ENDPOINT VALUE>
39

$$$$
>  <MOLECULE>
CN(C)CCc1c[nH]c2ccccc12 [DMT in SPL028ii]

>  <ASSAY ENDPOINT>
intrinsic clearance, CYP isoform 2C19

>  <ENDPOINT VALUE>
43

$$$$

From here, focus on the item given below.
Task item: Fill in: intrinsic clearance, CYP isoform 2C19 of CN(C)CCc1c[nH]c2ccccc12 [DMT in SPL028i] is ___
Reply: 40
